studyTarget: E1E2 of HCV isolate AMS.3a.21071213 (genotype 3a) (Hepatitis C virus genotype 3a)
measurementProtocol: cell-based or functional assay
measurementLabel: IC50, HCVpp neutralization (µg/mL)
Express it in µg/mL; write the number only.

q: Input AT12-010 (antibody, V domains shown) VH: QLQLVQSGAEVKKPGSSVKVSCKASGGTFTSYAINWVRQVPGQGLEWMGEISPVFGTTHYAQKFQGRLKITADESADTAYMELSSLRSDDTAVYYCGRDRAPRLCSGGRCHSPPDHWGQGTLVTVSS VL: DIQMTQSPSSVSASVGDRVTITCRASQGFGNWLAWYQQKPGRAPKLLIFGASTLQNGVPSRFSGSASGTDFTLTITSLQPEDFATYYCLQTNTFPYTFGQGTKVEIKR , output reported IC50, HCVpp neutralization.
a: 1.41
